Test system: K562
protocol_details: Cytotoxicity against human K562 cells assessed as cell growth at 10 uM after 48 hrs by SRB assay relative to control
Format: functional
test_parameters: K562, 48 h, read-out: Activity
Param label: returns 1 (yes) when growth at 10 µM < 70%, returns 0 (no) otherwise, including exact equality.

1) Cn1cc(-c2[nH]c(=O)[nH]c(=O)c2-c2cn(C)c3ccccc23)c2ccccc21
0 (no)
2) Cn1cc(-c2[nH]c(=S)[nH]c(=O)c2-c2cn(C)c3ccccc23)c2ccccc21
0 (no)
3) Cn1cc(-c2c(-c3cn(C)c4ncccc34)nc(N)[nH]c2=O)c2ccccc21
0 (no)
4) Cn1cc(-c2nc(N)[nH]c(=O)c2-c2cn(C)c3ccccc23)c2ccccc21
0 (no)
5) Cn1c2ccccc2c2c3c(=O)[nH]c(N)nc3c3c4cccnc4n(C)c3c21
0 (no)
6) Cn1c2ccccc2c2c3nc(N)[nH]c(=O)c3c3c4ccccc4n(C)c3c21
1 (yes)
